The reported numbers originate from PubChem BioAssay (NCI).

- RUN_DESCRIPTION: NCI Yeast Anticancer Drug Screen. Data for the sgs1 mgt1 strain (AID 161);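 note: 0% = growth of cultures given vehicle only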
- ASSAY_CONDITIONS: S. cerevisiae sgs1 mgt1 strain, at 5.0 µM (retest, dose inferred, filed as 0.5), active compounds read high
The panel holds about 79,000 compounds, 15% with a hit somewhere; the sample as a whole holds those more often. Activity calls are given as the source filed them. Cut-off read from the data, not from the text of the source: active = growth inhibition above about 70%; inactive = the rest.
Overview of recorded growth inhibition for various compounds

{"COMPOUND": "O=S1(=O)c2ccccc2C(O)(c2ccccc2)c2cc3ccccc3n21 (stereo not given)", "growth inhibition": "12% (inactive)"}
{"COMPOUND": "CC(C)COP(=O)(OCC(C)C)C(NS(=O)(=O)c1ccccc1)(C(F)(F)F)C(F)(F)F", "growth inhibition": "7% (inactive)"}
{"COMPOUND": "CC(C)(c1cc(Br)c(O)c(Br)c1)c1cc(Br)c(O)c(Br)c1", "growth inhibition": "85% (active)"}
{"COMPOUND": "CCOC(CCCl)OCC", "growth inhibition": "-1% (inactive)"}
{"COMPOUND": "O=[N+]([O-])c1ccc2c(Nc3ccccc3-c3ccccc3Nc3c4ccccc4nc4cc([N+](=O)[O-])ccc34)c3ccccc3nc2c1", "growth inhibition": "18% (inactive)"}

---

- RUN_DESCRIPTION: NCI Yeast Anticancer Drug Screen. Data for the cln2 rad14 strain (AID 165);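 note: 0% = growth equal to vehicle treated cultures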
- ASSAY_CONDITIONS: S. cerevisiae cln2 rad14 strain, at 5.0 µM (retest, dose inferred, filed as 0.5), active compounds read high
The panel holds about 79,000 compounds, 15% with a hit somewhere; the sample as a whole holds those more often.
Reported growth inhibition values follow for various compounds

{"COMPOUND": "CC1CCC(C(C)C2C(O)CC3C4CCC5CC(O)CCC5(C)C4CCC32C)NC1 (stereo unspecified)", "UNITS_LABEL": "%", "growth inhibition": -4}
{"COMPOUND": "O=C(NNc1ccccc1)C(O)C(O)C(O)C(O)C(O)C(O)C(O)CO (stereo unspecified)", "UNITS_LABEL": "%", "growth inhibition": 3}
{"COMPOUND": "Cc1c2c(c(C)c3c1OC(C)(C)CC3)OC(C)(C)CC2", "UNITS_LABEL": "%", "growth inhibition": -6}
{"COMPOUND": "CCOc1ccc(Nc2nc(C)c(C(=O)/C=C/c3ccc(Cl)cc3Cl)s2)cc1", "UNITS_LABEL": "%", "growth inhibition": 6}
{"COMPOUND": "CCC1=C(c2ccccc2)C(O)(c2ccccc2)C(CC)C1=O (stereo unspecified)", "UNITS_LABEL": "%", "growth inhibition": 5}
{"COMPOUND": "CCCCCCCCN(CCCCCCCC)C(=O)C(C)O (stereo unspecified)", "UNITS_LABEL": "%", "growth inhibition": 9}
{"COMPOUND": "COc1ccc(/C=C/c2ccc3ccccc3n2)cc1OC", "UNITS_LABEL": "%", "growth inhibition": 1}
{"COMPOUND": "O=C(N/C(=C\\c1ccccc1)C(=O)N1CCN(c2ccccc2)CC1)c1ccccc1", "UNITS_LABEL": "%", "growth inhibition": -12}
{"COMPOUND": "CCN(c1ccc(C=O)cc1)c1ccc([N+](=O)[O-])cc1[N+](=O)[O-]", "UNITS_LABEL": "%", "growth inhibition": 1}
{"COMPOUND": "CC1(c2ccccc2)NC(=O)N(CC(=O)N(c2ccccc2)c2ccccc2)C1=O (stereo unspecified)", "UNITS_LABEL": "%", "growth inhibition": 14}
{"COMPOUND": "N#CC(C(=O)C(=O)Nc1ccc(Cl)c(Cl)c1)c1c(Cl)cccc1Cl (stereo unspecified)", "UNITS_LABEL": "%", "growth inhibition": 4}
